Numbers sourced from ChEMBL document CHEMBL1122998.

tested on: Cavia porcellus; assay: Percent decrease in bronchodilator activity against acetylcholine-induced bronchospasm reaction in guinea pig by intraveneous administration at dose 250 ug/kg; format: functional
readout-label: Decrease (%)
// return numeric value only (unit: %, not printed)

compound | readout-label | test-result
Cn1c(=O)c2c(ncn2CCC(=O)N2CCN(CCCSc3ccccc3)CC2)n(C)c1=O | Decrease | 3

# value lookup — system Cavia porcellus, readout Decrease, item Cn1c(=O)c2c(ncn2CC(O)CN2CCN(CCCCOc3ccccc3)CC2)n(C)c1=O (stereo unspecified) 45

Please answer likewise for Cn1c(=O)c2c(ncn2CCCN2CCN(CCCCSc3ccccc3)CC2)n(C)c1=O 34

Thanks! And Cn1c(=O)c2c(ncn2CCCN2CCN(CCCCOc3ccccc3)CC2)n(C)c1=O ? 35

Also, Cn1c(=O)c2c(ncn2CCCN2CCN(CCCSc3ccccc3)CC2)n(C)c1=O please. 23

Here is the next compound: CC(=O)OC(CN1CCN(CCCSc2ccccc2)CC1)Cn1cnc2c1c(=O)n(C)c(=O)n2C (stereo unspecified) 17

Similarly, Cc1ccc(SCCCN2CCN(CC(O)Cn3c(=O)c4c(ncn4C)n(C)c3=O)CC2)cc1 (stereo unspecified) ? 29

Cn1cnc2c1c(=O)n(CCCN1CCN(CCCOc3ccc(Cl)cc3)CC1)c(=O)n2C ? 18

Quick one: Cn1c(=O)c2c(ncn2CC(O)CN2CCN(CC(O)CSc3ccccc3)CC2)n(C)c1=O (stereo unspecified) 0

Try this compound too: Cn1c(=O)c2c(ncn2C/C=C/CN2CCN(CCCSc3ccccc3)CC2)n(C)c1=O 0

Now consider Cn1cnc2c1c(=O)n(CC(O)CN1CCN(CCCOc3ccccc3)CC1)c(=O)n2C (stereo unspecified) . 0

====

tested on: Cavia porcellus; test: Percent decrease in bronchodilator activity against acetylcholine-induced bronchospasm reaction in guinea pig by intraveneous administration at dose 250 ug/kg; format: functional
The reader will find reported Decrease values listed item by item below.
All answers are understood in %, so give the number only.

Here's what some known entries look like.
compound | Decrease, %
Cn1cnc2c1c(=O)n(CCCN1CCN(CCCSc3ccccc3)CC1)c(=O)n2C | 10
CN(CCCSc1ccccc1)CCN(C)CCCn1cnc2c1c(=O)n(C)c(=O)n2C | 12
Cn1c(=O)c2c(ncn2CCCN2CCN(CCCOc3ccccc3)CC2)n(C)c1=O | 30

Now consider a different compound.
Return reported Decrease; argument: Cn1c(=O)c2c(ncn2CC(O)CN2CCN(CCCOc3ccccc3)CC2)n(C)c1=O (centres undefined) 23
